# Tested on: 422866-222-R5-J1-PDC spheroid viability
# experiment.summary: Anticancer human tumor 422866-222-R5-J1-PDC patient-derived pancreatic adenocarcinoma cell line growth inhibition [CLK]
# measurement.parameters: second compound 0.316 µM; first compound 0.01 µM; hits give low values; spheroids with HUVEC and MSC
Reported viability, T/C values follow for various compounds
Supply the numeric figure in %, leaving out any unit text.

Check out these entries, answers already filled in.
compound	viability, T/C, %
COc1c(OCCCN2CCOCC2)ccc2c3n(c(=NC(=O)c4cnc(N)nc4)nc12)CCN3 + CNC(=O)c1ccc(Nc2nc(OC3CCCC3)c3c(-c4ccc5nc(C)oc5c4)c[nH]c3n2)c(OC)c1	53.6
Cn1ncnc1[C@H]1c2n[nH]c(=O)c3cc(F)cc(c23)N[C@@H]1c1ccc(F)cc1 + CN1CCN(c2cc(C(=O)Nc3cc4cc(-c5cnn(C)c5)ccc4cn3)ccn2)CC1	75.8

Below: the item to evaluate.
viability, T/C in this record for CCc1c2c(nc3ccc(O)cc13)-c1cc3c(c(=O)n1C2)COC(=O)[C@]3(O)CC + CN1CCN(c2cc(C(=O)Nc3cc4cc(-c5cnn(C)c5)ccc4cn3)ccn2)CC1 : 44.1

====

# System: 422866-222-R5-J1-PDC spheroid viability
# experiment.summary: Anticancer human tumor 422866-222-R5-J1-PDC cell line growth inhibition [CLK];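 note: spheroids exposed to agents for seven days before readout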
# measurement.parameters: second compound 0.316 µM; first compound 0.003 µM; hits give low values; spheroids with HUVEC and MSC
Reported viability, T/C values follow for various compounds
Supply the numeric figure in %, leaving out any unit text.

Check out these entries, answers already filled in.
compound	readout.number
CC(C)CC(NC(=O)C(Cc1ccccc1)NC(=O)c1cnccn1)B(O)O (centres undefined) + CNC(=O)c1ccc(Nc2nc(OC3CCCC3)c3c(-c4ccc5nc(C)oc5c4)c[nH]c3n2)c(OC)c1	70.2
C=CC(=O)Nc1cc(Nc2nccc(-c3cn(C)c4ccccc34)n2)c(OC)cc1N(C)CCN(C)C + CN1CCN(c2cc(C(=O)Nc3cc4cc(-c5cnn(C)c5)ccc4cn3)ccn2)CC1	87.2
CC(C)CC(NC(=O)C(Cc1ccccc1)NC(=O)c1cnccn1)B(O)O (centres undefined) + CN1CCN(c2cc(C(=O)Nc3cc4cc(-c5cnn(C)c5)ccc4cn3)ccn2)CC1	72.7

Below: the item to evaluate.
viability, T/C in this record for C=CC(=O)Nc1cc(Nc2nccc(-c3cn(C)c4ccccc34)n2)c(OC)cc1N(C)CCN(C)C + CNC(=O)c1ccc(Nc2nc(OC3CCCC3)c3c(-c4ccc5nc(C)oc5c4)c[nH]c3n2)c(OC)c1 : 73.5

====

# Tested on: 422866-222-R5-J1-PDC spheroid viability
# experiment.summary: Anticancer human tumor 422866-222-R5-J1-PDC cell line growth inhibition [CLK];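 note: spheroids exposed to agents for seven days before readout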
# measurement.parameters: second compound 1 µM; first compound 10 µM; hits give low values; spheroids with HUVEC and MSC
metric.name: viability, T/C (%)
Supply the numeric figure in %, leaving out any unit text.

Check out these entries, answers already filled in.
molecule	u	viability, T/C
Nc1ccn(C2OC(CO)C(O)C2(F)F)c(=O)n1 (stereo not given) + CN1CCN(c2cc(C(=O)Nc3cc4cc(-c5cnn(C)c5)ccc4cn3)ccn2)CC1	%	14.9
CC(CO)NC(=O)c1cc(-c2ccc(Cl)cc2)nn(-c2cnn(C)c2)c1=O (stereo not given) + CN1CCN(c2cc(C(=O)Nc3cc4cc(-c5cnn(C)c5)ccc4cn3)ccn2)CC1	%	32
C#Cc1c(F)ccc2cc(O)cc(-c3ncc4c(N5CC6CCC(C5)N6)nc(OCC56CCCN5CC(F)C6)nc4c3F)c12 (stereo not given) + CN1CCN(c2cc(C(=O)Nc3cc4cc(-c5cnn(C)c5)ccc4cn3)ccn2)CC1	%	19
COc1cccc2c1C(=O)c1c(O)c3c(c(O)c1C2=O)CC(O)(C(=O)CO)CC3OC1CC(N)C(O)C(C)O1 (stereo not given) + CN1CCN(c2cc(C(=O)Nc3cc4cc(-c5cnn(C)c5)ccc4cn3)ccn2)CC1	%	54.5
CC1(C)CCC(CN2CCN(c3ccc(C(=O)NS(=O)(=O)c4ccc(NCC5CCOCC5)c([N+](=O)[O-])c4)c(Oc4cnc5[nH]ccc5c4)c3)CC2)=C(c2ccc(Cl)cc2)C1 + CNC(=O)c1ccc(Nc2nc(OC3CCCC3)c3c(-c4ccc5nc(C)oc5c4)c[nH]c3n2)c(OC)c1	%	57.1

Below: the item to evaluate.
viability, T/C in this record for C=C(F)C(=O)N1CCN(c2nc(OCC3CCCN3C)nc3c2CCN(c2cccc4cccc(Cl)c24)C3)CC1CC#N (stereo not given) + CNC(=O)c1ccc(Nc2nc(OC3CCCC3)c3c(-c4ccc5nc(C)oc5c4)c[nH]c3n2)c(OC)c1 : 4.65
